- target system: Orexin receptor type 2 (Homo sapiens)
- Sequence (O43614 whole entry): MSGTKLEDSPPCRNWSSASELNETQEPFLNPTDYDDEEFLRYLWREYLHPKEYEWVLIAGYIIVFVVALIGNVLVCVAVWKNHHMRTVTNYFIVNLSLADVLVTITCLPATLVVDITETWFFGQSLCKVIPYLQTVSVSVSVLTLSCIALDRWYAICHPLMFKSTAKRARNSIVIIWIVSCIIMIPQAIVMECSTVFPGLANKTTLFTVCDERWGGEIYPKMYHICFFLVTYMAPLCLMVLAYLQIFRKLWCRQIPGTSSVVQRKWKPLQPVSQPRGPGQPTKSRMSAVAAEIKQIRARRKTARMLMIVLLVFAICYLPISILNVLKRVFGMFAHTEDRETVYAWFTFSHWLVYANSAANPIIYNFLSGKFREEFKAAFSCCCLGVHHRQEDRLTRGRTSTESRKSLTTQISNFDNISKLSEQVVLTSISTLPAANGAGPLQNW
- assay explanation: Displacement of […]5IBOM from OX2R (unknown origin) transfected in CHO cells assessed as inhibition constant incubated for 1.5 hrs by automated gamma-counter analysis
- Format: cell-based
// values below are reported pKi
A value of pKi is the negative decimal logarithm of a concentration given in moles per litre.

Sample answers from the record:
INSERT INTO results (smiles_input, obs_value) VALUES
  ('Cc1ccc2nc(N3CCCN(C(=O)c4cc(F)ccc4-n4nccn4)[C@@H](C)C3)sc2c1', 7.58),
  ('C[C@H]1CN(c2nc3ccc(F)cc3s2)CCCN1C(=O)c1ccccc1-n1nccn1', 8.29),
  ('Cc1ccc(-n2nccn2)c(C(=O)N2CCCN(c3nc4ccc(F)cc4o3)C[C@@H]2C)c1', 6.81),
  ('C[C@H]1CN(c2nc3ccccc3s2)CCCN1C(=O)c1cc(F)ccc1-n1nccn1', 7.20);

Read the next record carefully.
Data request: Form field: reported pKi of Cc1ccc(-n2nccn2)c(C(=O)N2CCCN(c3nc4cc(F)ccc4o3)C[C@@H]2C)c1
Data returned: 8.06

* * *

- assay explanation: Biodistribution in male ddY mouse kidney administered intravenously and measured at 2 mins postinjection by gamma counter analysis
- Type: ADME, organism-based
- details: in vivo, iv
quantity kind: Drug uptake (% ID/g)
Your answer should be a plain number; it is taken to be in % ID/g.

The following molecules have reported results that may help.
INSERT INTO assay_data (smiles_input, quantity_kind, u, obs_value) VALUES
  ('Cc1ccc(-n2nccn2)c(C(=O)N2CCCN(c3nc4cc([18F])ccc4s3)C[C@@H]2C)c1', 'Drug uptake', '% ID/g', 11.9),
  ('C[C@H]1CN(c2nc3ccccc3s2)CCCN1C(=O)c1cc([18F])ccc1-n1nccn1', 'Drug uptake', '% ID/g', 9.76);

Data request: Consider the molecule shown here: Cc1ccc(-n2nccn2)c(C(=O)N2CCCN(c3nc4ccc([18F])cc4s3)C[C@@H]2C)c1 What is its recorded Drug uptake?
Data returned: 10.3

Data request: Look at this molecule and give its reported Drug uptake. C[C@H]1CN(c2nc3ccc(F)cc3s2)CCCN1C(=O)c1cc([18F])ccc1-n1nccn1
Data returned: 7.83

* * *

- assay explanation: Biodistribution in male ddY mouse bone administered intravenously and measured at 2 mins postinjection by gamma counter analysis
- Type: ADME, organism-based, Bone element
- details: in vivo, iv
The entries below come with measured Drug uptake values attached.
Could you give me the number in % ID/g? Just the number is fine.

Some compounds with recorded Drug uptake:
INSERT INTO assay_data (smiles_input, u, obs_value) VALUES
  ('Cc1ccc(-n2nccn2)c(C(=O)N2CCCN(c3nc4ccc([18F])cc4s3)C[C@@H]2C)c1', '% ID/g', 3.11),
  ('C[C@H]1CN(c2nc3ccccc3s2)CCCN1C(=O)c1cc([18F])ccc1-n1nccn1', '% ID/g', 2.69),
  ('C[C@H]1CN(c2nc3ccc(F)cc3s2)CCCN1C(=O)c1cc([18F])ccc1-n1nccn1', '% ID/g', 1.5);

// below: Drug uptake requested for another compound
Data request: Entry Cc1ccc(-n2nccn2)c(C(=O)N2CCCN(c3nc4cc([18F])ccc4s3)C[C@@H]2C)c1 has what Drug uptake?
Data returned: 2.51
